read-out: Cytochrome P450 3A7 (Homo sapiens) (UniProt P24462); experiment: LTEA_HepaRG_CYP3A7: Life Technologies and Expression Analysis (LTEA) Assay for CYP3A7 using HepaRG (AID 2283492); settings: mRNA level, 48 h; actives raise or lower the signal
Sequence (P24462 whole entry, looked up): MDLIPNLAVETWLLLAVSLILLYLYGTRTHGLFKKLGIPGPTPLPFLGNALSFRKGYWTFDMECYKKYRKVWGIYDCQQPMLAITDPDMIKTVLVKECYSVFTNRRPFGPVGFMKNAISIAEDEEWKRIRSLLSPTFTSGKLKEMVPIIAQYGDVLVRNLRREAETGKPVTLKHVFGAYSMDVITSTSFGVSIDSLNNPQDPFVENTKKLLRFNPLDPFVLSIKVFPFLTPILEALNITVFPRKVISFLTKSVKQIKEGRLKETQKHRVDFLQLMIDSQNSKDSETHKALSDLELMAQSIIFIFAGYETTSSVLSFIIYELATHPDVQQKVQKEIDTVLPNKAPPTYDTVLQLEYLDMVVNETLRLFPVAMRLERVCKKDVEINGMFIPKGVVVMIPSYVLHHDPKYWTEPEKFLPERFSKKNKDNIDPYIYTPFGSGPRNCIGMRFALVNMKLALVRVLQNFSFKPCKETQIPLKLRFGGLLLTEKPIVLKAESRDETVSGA
Calls of active or inactive are those of the source. How the source made its calls: active means hit-call score of the fitted dose curve at least 0.9, where 1 is the maximum; inactive means score below 0.9.
Choose the fitting class; nothing outside Yes (active), No (inactive) is accepted.

Examples from the recorded data:
{"MOLECULAR STRING": "Cc1cc2c3c(c1)C(c1ccccc1)=N[C@@H](NC(=O)c1ccncc1)C(=O)N3CC2", "CLASS ASSIGNMENT": "Yes"}
{"MOLECULAR STRING": "Cc1cccc(C)c1N", "CLASS ASSIGNMENT": "No"}
{"MOLECULAR STRING": "O=C(N[C@H]1CN2CCC1CC2)c1cc2ccoc2cn1", "CLASS ASSIGNMENT": "No"}
{"MOLECULAR STRING": "Nn1cnnc1", "CLASS ASSIGNMENT": "No"}

Please let me know the test result on file for O=NN(c1ccccc1)c1ccccc1 . No

Please let me know the test result on file for Clc1ccc(C(Cl)(Cl)Cl)cc1 . No

====

molecular target: Bile acid receptor (Homo sapiens) (UniProt Q96RI1); experiment: ATG_FXR_TRANS: Attagene TRANS-FACTORIAL HepG2 Assay for Farnesoid X Receptor (FXR) (AID 2282979); conditions: HepG2 Attagene TRANS FXR-GAL4 reporter transcription;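 further: hits raise reporter mRNA above DMSO so AC50 marks FXR activation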
Sequence (Q96RI1 whole entry, looked up, the tested form may be a part): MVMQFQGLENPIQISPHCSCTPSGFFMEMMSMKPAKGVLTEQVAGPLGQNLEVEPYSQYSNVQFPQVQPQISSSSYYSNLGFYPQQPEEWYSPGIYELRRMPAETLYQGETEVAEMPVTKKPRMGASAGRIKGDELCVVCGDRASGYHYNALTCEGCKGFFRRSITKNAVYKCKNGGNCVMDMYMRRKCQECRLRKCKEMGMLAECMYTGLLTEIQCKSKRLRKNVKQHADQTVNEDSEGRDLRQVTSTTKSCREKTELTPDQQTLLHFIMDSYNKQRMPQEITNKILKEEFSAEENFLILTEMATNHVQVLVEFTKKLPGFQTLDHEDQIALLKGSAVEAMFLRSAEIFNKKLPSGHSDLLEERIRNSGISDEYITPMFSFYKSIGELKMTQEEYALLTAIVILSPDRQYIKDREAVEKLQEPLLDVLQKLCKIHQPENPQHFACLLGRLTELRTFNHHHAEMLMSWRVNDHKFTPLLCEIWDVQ
Results filed as inconclusive are left out. Active and inactive are the calls of the source. How the source made its calls: active means hit-call score of the fitted dose curve at least 0.9, where 1 is the maximum; inconclusive means response in the unintended direction; inactive means score below 0.9.
Choose the fitting class; nothing outside active, inactive is accepted.

{"MOLECULAR STRING": "CCCCCCCCCC[N+](C)(C)CCCCCCCCCC", "SYSTEM NAME": "Bile acid receptor (Homo sapiens) (UniProt Q96RI1)", "CLASS ASSIGNMENT": "inactive"}
{"MOLECULAR STRING": "Cc1cc(O)ccc1Cl", "SYSTEM NAME": "Bile acid receptor (Homo sapiens) (UniProt Q96RI1)", "CLASS ASSIGNMENT": "inactive"}
{"MOLECULAR STRING": "CO/C=C(/C(=O)OC)c1ccccc1COc1cccc(C(F)(F)F)n1", "SYSTEM NAME": "Bile acid receptor (Homo sapiens) (UniProt Q96RI1)", "CLASS ASSIGNMENT": "inactive"}
{"MOLECULAR STRING": "CC(c1ccc(O)cc1)(c1ccc(O)cc1)c1ccc(O)cc1", "SYSTEM NAME": "Bile acid receptor (Homo sapiens) (UniProt Q96RI1)", "CLASS ASSIGNMENT": "active"}
{"MOLECULAR STRING": "CCC(C)(c1ccc(O)cc1)c1ccc(O)cc1", "SYSTEM NAME": "Bile acid receptor (Homo sapiens) (UniProt Q96RI1)", "CLASS ASSIGNMENT": "inactive"}
{"MOLECULAR STRING": "Oc1c(Cl)c(Cl)c(Cl)c(Cl)c1Cl", "SYSTEM NAME": "Bile acid receptor (Homo sapiens) (UniProt Q96RI1)", "CLASS ASSIGNMENT": "inactive"}

Please let me know the test result on file for Cc1cccc(C)c1N . inactive

====

read-out: Pro-epidermal growth factor (Homo sapiens); experiment: LTEA_HepaRG_EGF: Life Technologies and Expression Analysis (LTEA) Assay for Epidermal growth factor (EGF) using HepaRG (AID 2283489); settings: mRNA level, 48 h; actives raise or lower the signal
Active and inactive are the calls of the source. The calls were made as follows: active = hit-call score of the fitted dose curve at least 0.9, where 1 is the maximum; inactive = score below 0.9.
Choose the fitting class; nothing outside 1 for active, -1 for inactive is accepted.

{"MOLECULE": "CC(C)C(=O)OCC(C)(C)C(OC(=O)C(C)C)C(C)C (stereo unspecified)", "CLASS ASSIGNMENT": -1}
{"MOLECULE": "C[C@]12CCC(=O)C=C1CC[C@@H]1[C@@H]2CC[C@@]2(C)[C@H]1CC[C@]2(C)O", "CLASS ASSIGNMENT": -1}
{"MOLECULE": "Oc1c(Cl)c(Cl)c(Cl)c(Cl)c1Cl", "CLASS ASSIGNMENT": 1}

Please let me know the test result on file for CC1=C2C[C@H]3[C@@H](CC=C4C[C@@H](O)CC[C@@]43C)[C@@H]2CC[C@]12O[C@@H]1C[C@H](C)CN[C@H]1[C@H]2C . -1

Please let me know the test result on file for O=S(=O)(O)C(F)(F)C(F)(F)C(F)(F)C(F)(F)C(F)(F)C(F)(F)F . -1

Please let me know the test result on file for CC(c1ccc(O)cc1)(c1ccc(O)cc1)c1ccc(O)cc1 . -1
